# Test system: ACHN cell line
# test_summary: drug screen of the SelleckChem kinase inhibitor library with and without 5 uM SU-329, Cell-Titer Glo after 5 days
# Format: cell-based
# measurement_setup: kinase inhibitor at 200 nM with and without 5 uM SU329; ACHN cell line; 5 days; Cell-Titer Glo
property_measured: log2fc
The answer should be a number; do not append a unit.

Enquiry: Check the records and state log2fc for COc1cc2nccc(Oc3ccc(NC(=O)Nc4ccc(F)cc4F)c(F)c3)c2cc1OC
Return: 0.1011

Enquiry: Check the records and state log2fc for O=c1ccc2ccc(O)c(O)c2o1
Return: 0.08794

Enquiry: Check the records and state log2fc for CCCNC(=O)Nc1ccc(Oc2ncnc3cc(OC)c(OC)cc23)cc1Cl
Return: 0.02524

Enquiry: Check the records and state log2fc for N#Cc1ccc2[nH]c(O)c(-c3ccc(CN4CCOCC4)cn3)c2c1
Return: 1.953

Enquiry: Check the records and state log2fc for O=C(O)c1ccc(-c2c[nH]c3ncc(-c4ccccc4)cc23)cc1C1CCCC1
Return: 0.3205
